tested on: 192522-019-R-J2-PDC complex tumor spheroid viability; assay: Anticancer human tumor 192522-019-R-J2-PDC patient-derived colon adenocarcinoma cell line growth inhibition [POLQ]; conditions: second compound 0.0316 µM; first compound 0.001 µM; stronger effect = lower value;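 note: spheroids exposed to drugs for seven days before reading; 100% = DMSO vehicle control viability in luminescence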
VALUE_TYPE: viability, T/C

What value of measured viability, T/C is listed for Cn1ncnc1[C@H]1c2n[nH]c(=O)c3cc(F)cc(c23)N[C@@H]1c1ccc(F)cc1 + COC1C(OC(N)=O)C(O)C(Oc2ccc3c(O)c(NC(=O)c4ccc(O)c(CC=C(C)C)c4)c(=O)oc3c2C)OC1(C)C ?
91.9%

For the molecule shown here, CC[C@@]1(O)C(=O)OCc2c1cc1n(c2=O)Cc2cc3c(CN(C)C)c(O)ccc3nc2-1 + Cc1cccc(N(C)C(=O)C2C(O)CCN2c2nc(C)cc(C(F)(F)F)c2C#N)c1 , give the reported viability, T/C.
93.7%

Please report the recorded viability, T/C for Cn1ncnc1[C@H]1c2n[nH]c(=O)c3cc(F)cc(c23)N[C@@H]1c1ccc(F)cc1 + Nc1ccc(C#CCN(C(=O)Cc2ncc(C(F)(F)F)cc2C(F)(F)F)c2ccc(F)cc2)nn1 .
108%
